Cited source for all entries: paper PMC5788896

Assay: Intravenous infusion pharmacokinetics, whole blood by HPLC
Assay type: in vivo, Sprague-Dawley rats
Details: male, Sprague-Dawley, rat, iv infusion 12.5 mg (50 mg/kg), apparent first order kinetics, read-out: half-life in the bloodstream
Value kind: half-life (min)
One number for each entry, in min.

Per the records, this molecule ( CC(C)=CCC/C(C)=C/CO [geraniol, 3,7-dimethylocta-trans-2,6-dien-1-ol] ) has half-life equal to 12.5

---

Experiment: Intravenous infusion pharmacokinetics, whole blood by HPLC
Assay type: in vivo, Sprague-Dawley rats
Details: male, Sprague-Dawley, rat, iv 50 mg/kg, blood, within 3 h, read-out: AUC, intravenous administration (converted)
Value kind: AUC (µg·h/mL)
Answers are plain numbers, in µg·h/mL.

// AUC lookup, molecule = CC(C)=CCC/C(C)=C/CO [geraniol, 3,7-dimethylocta-trans-2,6-dien-1-ol] , result: 126
